# System: Hey (Ovarian Carcinoma);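 also: after 72 h of two-drug dosing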
# Procedure Details: Bliss excess, mean over the matrix (fraction); higher = more synergy
Collected Bliss excess values appear next to each entry.
Measurement Name: Bliss excess

>>> endpoint_value("CCN(CCO)CCCOc1ccc2c(Nc3cc(CC(=O)Nc4cccc(F)c4)[nH]n3)ncnc2c1 [AZD2811] + O=C(c1cc(Cc2n[nH]c(=O)c3ccccc23)ccc1F)N1CCN(C(=O)C2CC2)CC1 [Olaparib] (first compound max 1 µM, 7x7, partner max 10 µM)")
0.0251
>>> endpoint_value("Cn1cnc2c(F)c(Nc3ccc(Br)cc3Cl)c(C(=O)NOCCO)cc21 [Selumetinib] + C[C@@H]1COCCN1C2=NC(=NC(=C2)C3(CC3)[S@](=N)(=O)C)C4=C5C=CNC5=NC=C4 [AZD6738] (first compound max 10 µM, 7x7, partner max 10 µM)")
-0.0014
>>> endpoint_value("CC1(C)CCC(CN2CCN(c3ccc(C(=O)NS(=O)(=O)c4ccc(NCC5CCOCC5)c([N+](=O)[O-])c4)c(Oc4cnc5[nH]ccc5c4)c3)CC2)=C(c2ccc(Cl)cc2)C1 [Venetoclax] + CN(C)CCCOc1ccc(-c2ccc3ncc4c(c3c2)n(C2CCOCC2)c(=O)n4C)cn1 [AZD0156] (first compound max 1 µM, 7x7, partner max 1 µM)")
-0.0255

###

Collected combination Emax values appear next to each entry.
# Test system: HAL-01 (B-Lymphoblastic Leukemia)
# Procedure Details: combination Emax (second highest fraction inhibited in the dose matrix, 72 h); higher = more inhibition; extreme values may be limits of the assay
Measurement Name: combination Emax

>>> endpoint_value("C=CCn1c(=O)c2cnc(Nc3ccc(N4CCN(C)CC4)cc3)nc2n1-c1cccc(C(C)(C)O)n1 [AZD1775] + C1CN(CCC1(C(=O)N[C@@H](CCO)C2=CC=C(C=C2)Cl)N)C3=NC=NC4=C3C=CN4 [Capivasertib] (first compound max 3 µM, partner max 3 µM)")
0.977
>>> endpoint_value("Cc1c2c(nn1C)CSCc1cc(n(C)n1)CSc1cc(c3ccccc3c1)OCCCc1c(C(=O)O)n(C)c3c-2c(Cl)ccc13 [AZD5991] + CC(=O)O[C@H]1C(=O)[C@@]2(C)[C@H]([C@H](OC(=O)c3ccccc3)[C@]3(O)C[C@H](OC(=O)[C@H](O)[C@@H](NC(=O)c4ccccc4)c4ccccc4)C(C)=C1C3(C)C)[C@]1(OC(C)=O)CO[C@@H]1C[C@@H]2O [Paclitaxel] (first compound max 1 µM, 7x7, partner max 3 µM)")
0.99
>>> endpoint_value("CN(CCO)CC[C@H](CSc1ccccc1)Nc1ccc(S(=O)(=O)NC(=O)c2ccc(N3CCC([C@@H](O)c4ccccc4-c4ccc(Cl)cc4)CC3)cc2)cc1S(=O)(=O)C(F)(F)F [AZD4320] + CS(=O)(=O)CCNCc1ccc(-c2ccc3ncnc(Nc4ccc(OCc5cccc(F)c5)c(Cl)c4)c3c2)o1 [Lapatinib] (first compound max 1 µM, 7x7, partner max 10 µM)")
1
>>> endpoint_value("NC1(C(=O)N[C@@H](CCO)c2ccc(Cl)cc2)CCN(c2ncnc3[nH]ccc23)CC1 [Capivasertib] + C[C@@H]1COCCN1C2=NC(=NC(=C2)C3(CC3)[S@](=N)(=O)C)C4=C5C=CNC5=NC=C4 [AZD6738] (first compound max 10 µM, 7x7, partner max 10 µM)")
0.97
>>> endpoint_value("CCN(CCO)CCCOc1ccc2c(Nc3cc(CC(=O)Nc4cccc(F)c4)[nH]n3)ncnc2c1 [AZD2811] + C=CCn1c(=O)c2cnc(Nc3ccc(N4CCN(C)CC4)cc3)nc2n1-c1cccc(C(C)(C)O)n1 [AZD1775] (first compound max 1 µM, partner max 1 µM)")
0.891
>>> endpoint_value("CC1(C)CCC(CN2CCN(c3ccc(C(=O)NS(=O)(=O)c4ccc(NCC5CCOCC5)c([N+](=O)[O-])c4)c(Oc4cnc5[nH]ccc5c4)c3)CC2)=C(c2ccc(Cl)cc2)C1 [Venetoclax] + COc1cc(Nc2ncc3c(n2)-c2ccc(Cl)cc2C(c2c(F)cccc2OC)=NC3)ccc1C(=O)O [Alisertib] (first compound max 1 µM, 7x7, partner max 10 µM)")
1
